Test system: RPMI-8226 leukemia
method summary: NCI tumour cell line growth inhibition, 48 h
measured quantity: TGI (µM)

molecule	bound operator	val
CSC1N=CNc2c1sc(=S)n2-c1ccccc1 (centres undefined)	>	100
COC(=O)/C=C\[C@H]1[C@H](C)N1S(=O)(=O)c1ccc(C)cc1 (some centres undefined)	>	100
COc1cc([C@@H]2c3cc4c(cc3[C@@H](OC3OC5CO[C@@H](c6cccs6)OC5C(O)C3O)[C@H]3COC(=O)[C@H]23)OCO4)cc(OC)c1O (some centres undefined)	=	3.35
COc1ccc(C(=O)/C=C/c2ccc(Oc3cc(C(=O)/C=C/c4ccc(O)cc4)c(O)cc3OC)cc2)c(O)c1	=	4.7
CN1CCCC2[C@@H]3CCC4=C(O)C(=O)CC[C@]4(C)C3CC[C@@]21C (some centres undefined)	>	100
O=C1/C=C/[C@@H](O)[C@@H]2C[C@@H](O)C[C@H]2/C=C/CCC[C@H](CCc2ccccc2)O1	=	5.31
COc1ccc(/C=C2\COc3ccc(O)c(O)c3C2=O)cc1	=	1.2
COc1ccc(C2C=C(c3ccc(OC)c(OC)c3)N=C3SC=CN32)c(Br)c1 (centres undefined)	=	5.98
O=C1OCCC1(Cc1ccc(Cl)cc1)Cc1ccc(Cl)cc1	>	100

---

System: DU-145 prostate
method summary: NCI tumour cell line growth inhibition, 48 h
measured quantity: GI50

> print(dat)
                                        smi      val
1  COC(=O)/C=C1/SC(=Nc2ccc(F)cc2)N(CCc2c[nH]c3ccc(O)cc23)C1=O  5.92 µM
2          Nc1nc2cc(O)ccc2n2cc3c(F)cccc3c12  6.38 µM
3    COc1ccc(/C=C2\COc3ccc(O)c(O)c3C2=O)cc1  1.08 µM

---

System: SNB-75 CNS
method summary: NCI tumour cell line growth inhibition, 48 h; in the data active means GI50 below about 0.43 µM; inactive means the rest
Outcome codes: active, inactive

molecule	target or test system	cat
COc1cc2cnc3c(c2c(OC)c1OC)Cc1cc2c(cc1-3)OCO2	SNB-75 CNS	inactive
C#CC[C@@H]1C[C@]2(C)[C@H]3CC[C@@H]4[C@H]5C(C(=C)C)CC[C@]5(C(=O)NCCCCN)CC[C@@]4(C)[C@]3(C)CC[C@H]2C(C)(C)[C@H]1OC(C)=O (stereo not given in full)	SNB-75 CNS	inactive
Cc1cc2cn3c4ccc(O)cc4nc(N)c3c2cc1C	SNB-75 CNS	active
Cc1ccc(C2=NN(c3ccc(S(C)(=O)=O)cc3)C(=O)CC2)cc1	SNB-75 CNS	inactive
c1ccc(CC(Cc2ccccc2)C2=NCCCN2)cc1	SNB-75 CNS	inactive

---

System: OVCAR-5 ovarian
method summary: NCI tumour cell line growth inhibition, 48 h

molecule	target or test system	bound operator	TGI / µM
COc1cc(/C=C/C(=O)c2ccccc2)cc(OC)c1OC	OVCAR-5 ovarian	=	16.6
CNC(=S)/C(C#N)=C(\N)N1CCN(C)CC1	OVCAR-5 ovarian	>	100
Clc1c2ncccc2cc2n[nH]nc12	OVCAR-5 ovarian	>	100
Cc1cc2cn3c4ccc(O)cc4nc(N)c3c2cc1C	OVCAR-5 ovarian	=	11.5
COc1ccc(/C=C2\COc3ccc(O)c(O)c3C2=O)cc1	OVCAR-5 ovarian	=	5.85
Cn1c(-c2ccncc2)c(-c2ccc(F)cc2)c2ncccc21	OVCAR-5 ovarian	>	25
CC/C=C/C(CC)C/C(C)=C\[C@]1(CC)C[C@H](CC)[C@H](CC(=O)O)OO1 (some centres not stated)	OVCAR-5 ovarian	=	2.64
COC(=O)C(Cc1ccc(OC)cc1O)NC(=O)OC(C)(C)C (configuration not stated)	OVCAR-5 ovarian	>	100
Cc1cc(=O)[nH]c(S(=O)(=O)NC(=S)Nc2ccc(Cl)cc2)n1	OVCAR-5 ovarian	>	100
CN1CCCC2[C@@H]3CCC4=C(O)C(=O)CC[C@]4(C)C3CC[C@@]21C (some centres not stated)	OVCAR-5 ovarian	>	100
C=[CH][Sn]([CH]=C)([S]c1cccc2cccnc12)[S]c1cccc2cccnc12	OVCAR-5 ovarian	=	0.745
O=S1OC[C@H](CCCl)O1 (some centres not stated)	OVCAR-5 ovarian	>	100
COc1ccc(-c2cc(=O)c3c(O)cc(O)cc3o2)cc1OC	OVCAR-5 ovarian	>	100
O=[N+]([O-])c1ccc(C2CC(c3ccc(NCc4nc5ccccc5[nH]4)cc3)=NO2)cc1 (configuration not stated)	OVCAR-5 ovarian	>	100
COc1ccc2c(c1OC)-c1c(c3ccc([N+](=O)[O-])cc3c(=O)n1CCCN)C2=O	OVCAR-5 ovarian	=	9.74
COc1cc2nn(-c3ccccc3)nc2c2nonc12	OVCAR-5 ovarian	>	100
COc1cc([C@@H]2c3cc4c(cc3[C@@H](OC3OC5CO[C@@H](c6cccs6)OC5C(O)C3O)[C@H]3COC(=O)[C@H]23)OCO4)cc(OC)c1O (some centres not stated)	OVCAR-5 ovarian	=	11.7
CCC1=CCN(c2ccc(C)cc2)OC1c1ccc(OC)cc1 (configuration not stated)	OVCAR-5 ovarian	>	100
COC1O[C@@H]2COC(C)(C)O[C@@H]2C(=O)N1Nc1ccc([N+](=O)[O-])cc1 (some centres not stated)	OVCAR-5 ovarian	>	100
S=C(Nc1ccccc1)c1ccc(CN2CCCCC2)s1	OVCAR-5 ovarian	=	35
O=C1C=C(Nc2ccc(Br)cc2)c2ccccc2C1=O	OVCAR-5 ovarian	=	35.3
CCOC(=O)[C@@H]1[C@@H]2NC(=O)N[C@@]1(C)Oc1ccccc12	OVCAR-5 ovarian	>	100

---

System: RXF 393 renal
method summary: NCI tumour cell line growth inhibition, 48 h

molecule	TGI
O=C1C=C(Nc2ccc(Br)cc2)c2ccccc2C1=O	30.6 µM
CCc1ccc(C(=O)/C=C/C23c4ccccc4C(c4ccccc42)C2C(=O)NC(=O)C23)cc1 (centres undefined)	3.24 µM
O=C1/C=C/[C@@H](O)[C@@H]2C[C@@H](O)C[C@H]2/C=C/CCC[C@H](CCc2ccccc2)O1	< 0.0212 µM
O=[N+]([O-])c1ccc(C2CC(c3ccc(NCc4nc5ccccc5[nH]4)cc3)=NO2)cc1 (centres undefined)	> 100 µM
CCCCC(=O)OC[n+]1ccc(-c2c(COC(=O)NC(C)C)c(COC(=O)NC(C)C)c3n2CCC3)cc1	> 100 µM
N#CC(C#N)=C1NN=C(Cl)c2ccccc21	> 100 µM
CC1OC(Oc2c(-c3cc(O)c(O)c(O)c3)oc3cc(O)cc(O)c3c2=O)C(O)C(O)C1O (centres undefined)	> 100 µM
CCC(C)NC(=S)N/N=C(\C)c1nc2ncccc2[nH]1 (centres undefined)	> 75.6 µM
COC(=O)[C@@]12CN(C)[C@@H](C(C)(C)C)N1C(=O)OC2c1ccccc1 (some centres undefined)	> 100 µM
Cn1cnc([N+](=O)[O-])c1Sc1nc2ccccc2s1	8.22 µM
CCOC(=O)[C@@H]1[C@@H]2NC(=O)N[C@@]1(C)Oc1ccccc12	> 100 µM
NCCCCCn1c2c(c3ccccc3c1=O)C(=O)c1ccccc1-2	> 26.3 µM
CC(=O)Nc1ccc(-c2nnc(SCC(=O)Nc3ccccc3)o2)cc1	> 100 µM
CCOP(=O)(O)CC1OC(CO)C(O)C1O (centres undefined)	> 100 µM
CSc1nc(NC2OC(COC(C)=O)C(OC(C)=O)C(OC(C)=O)C2OC(C)=O)c(N=CC=Nc2c(NC3OC(COC(C)=O)C(OC(C)=O)C(OC(C)=O)C3OC(C)=O)nc(SC)[nH]c2=O)c(=O)[nH]1 (centres undefined)	> 100 µM
COc1ccc(C(NS(=O)(=O)c2ccc(C)cc2)c2c(C(CBr)OC)c3ccccc3n2S(=O)(=O)c2ccccc2)cc1OC (centres undefined)	> 100 µM
C#CC[C@@H]1C[C@]2(C)[C@H]3CC[C@@H]4[C@H]5C(C(=C)C)CC[C@]5(C(=O)NCCCCN)CC[C@@]4(C)[C@]3(C)CC[C@H]2C(C)(C)[C@H]1OC(C)=O (some centres undefined)	3.14 µM
Cc1oc2c(C(=O)N/N=C\c3ccc(O)cc3O)c[nH]c2c1C	16.7 µM
C=C(C(=O)OC)N1C(=O)CC(C)C1=O (centres undefined)	26.1 µM

---

Test system: HT29 colon
method summary: NCI tumour cell line growth inhibition, 48 h
TGI: recorded values
measured quantity: TGI (µM)

> print(dat)
                                   molecule  measured.quantity  bound.operator   val
1  CC(=O)OC1C[C@@H](C)C2(CC(c3ccoc3)OC2=O)C2CCC(O)C3(CO3)C12CO (stereo not given in full)                TGI               >   100
2  CC(=O)Nc1ccc(-c2nnc(SCC(=O)Nc3ccccc3)o2)cc1                TGI               >   100
3  CCCCNC(=O)c1cc(S(=O)(=O)n2cc[nH]c2=O)c(SC)cc1Cl                TGI               >   100
4  COc1ccc(/C=C/C2C(C#N)=C(N)OC3=C2C(=O)CCC3)cc1 (stereo not given)                TGI               =  20.2
5      Cn1cnc([N+](=O)[O-])c1Sc1nc2ccccc2s1                TGI               =  28.5
